Provenance of the data: paper PMC5463734

Target: recombinant H. sapiens NMT isoform 2 (HsNMT2) (Homo sapiens, UniProt O60551)
Sequence (O60551 1-498): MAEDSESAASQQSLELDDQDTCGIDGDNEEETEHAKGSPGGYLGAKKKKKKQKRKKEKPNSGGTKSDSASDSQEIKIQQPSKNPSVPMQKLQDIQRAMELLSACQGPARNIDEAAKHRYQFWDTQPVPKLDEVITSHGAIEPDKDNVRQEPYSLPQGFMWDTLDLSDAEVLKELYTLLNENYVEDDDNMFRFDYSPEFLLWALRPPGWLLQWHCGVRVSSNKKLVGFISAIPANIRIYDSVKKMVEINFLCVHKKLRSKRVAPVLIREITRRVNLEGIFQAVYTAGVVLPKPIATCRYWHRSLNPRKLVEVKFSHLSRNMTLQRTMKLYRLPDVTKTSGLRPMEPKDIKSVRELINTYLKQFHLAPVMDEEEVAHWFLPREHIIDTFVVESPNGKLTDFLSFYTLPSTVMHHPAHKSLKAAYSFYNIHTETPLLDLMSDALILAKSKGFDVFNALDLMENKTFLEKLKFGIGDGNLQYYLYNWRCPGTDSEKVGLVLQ
Test: fluorogenic 96-well plate enzymatic assay for HsNMT2 activity
Details: recombinant enzyme; mean ± SD from duplicates; Ki app from IC50 by Cheng-Prusoff
Recorded Ki by entry

Please review the following examples before continuing.
| Compound | Assay Value |
| --- | --- |
| CCOC(=O)c1cnc2ccc(OCc3ccccc3)cc2c1SC(C)C | > 10000 nM |
| CCSc1c(C(=O)N2CCOCC2)cnc2ccc(OCc3ccccc3)cc12 | 590 nM |
| CCOC(=O)c1cnc2ccc(OCc3ccc(NCCN)nc3)cc2c1SCC | 410 nM |

Here's the next entry for you.
Reported Ki for CCOC(=O)c1cnc2ccc(OCc3ccccc3)cc2c1[S+]([O-])CC (stereo not shown) was > 10000 nM

* * *

Target: recombinant H. sapiens NMT isoform 1 (HsNMT1) (Homo sapiens)
Assay: fluorogenic 96-well plate enzymatic assay for HsNMT1 activity
Settings: recombinant enzyme; mean ± SD from duplicates; Ki app from IC50 by Cheng-Prusoff
Measurement Kind: Ki

| Molecule | Ki |
| --- | --- |
| CCSc1c(C(=O)N(CC)CC)cnc2ccc(OCc3ccccc3)cc12 | 1.02 µM |

Reported Ki for CCOC(=O)c1cnc2ccc(OCc3ccccc3)cc2c1[S+]([O-])CC (centres unmarked) was 3.6 µM

Reported Ki for CCOCc1cnc2ccc(OCc3ccccc3)cc2c1SCC was > 10 µM

Reported Ki for CCSc1c(C(=O)N2CCCC2)cnc2ccc(OCc3ccccc3)cc12 was 1.36 µM

Reported Ki for CCOC(=O)c1cnc2ccc(OCc3ccc(NCCN)nc3)cc2c1SCC was 0.05 µM

* * *

Molecular target: recombinant H. sapiens NMT isoform 2 (HsNMT2) (Homo sapiens, UniProt O60551)
Test: fluorogenic 96-well plate enzymatic assay for HsNMT2 activity
Type: biochemical
Conditions: recombinant enzyme; mean ± SD from duplicates; Ki app from IC50 by Cheng-Prusoff
Experimental: Final compounds were tested using a previously described fluorogenic 96-well plate assay for PvNMT,2 PfNMT3 and […] nonlinear regression fitting using GraFit 7.0 (Erithacus Software Ltd., U.K.). Apparent inhibition constants, Kiapp, were calculated from experimental IC50 using Cheng-Prussof equation.5
Recorded Ki by entry

Please review the following examples before continuing.
| Molecule | Ki |
| --- | --- |
| CCSc1c(C(=O)NCCO)cnc2ccc(OCc3ccccc3)cc12 [Compound 18] | > 10 µM |
| CCSc1c(C(=O)N2CCCC2)cnc2ccc(OCc3ccccc3)cc12 [Compound 15] | > 10 µM |
| CCSc1c(CO)cnc2ccc(OCc3ccccc3)cc12 [Compound 11] | > 10 µM |
| CCCSc1c(C(=O)OCC)cnc2ccc(OCc3ccccc3)cc12 [Compound 5] | > 10 µM |
| CCNC(=O)c1cnc2ccc(OCc3ccccc3)cc2c1SCC [Compound 13] | > 10 µM |
| CCOC(=O)c1cnc2ccc(OCc3ccccc3)cc2c1S(=O)(=O)CC [Compound 10] | > 10 µM |
| CCOC(=O)c1cnc2ccc(OCc3ccccc3)cc2c1SCC [Compound 7] | 4.23 µM |
| CCOCc1cnc2ccc(OCc3ccccc3)cc2c1SCC [Compound 12] | > 10 µM |

Reported Ki for CCSc1c(C(=O)N(CC)CC)cnc2ccc(OCc3ccccc3)cc12 [Compound 14] was 3.53 µM

* * *

Recorded LipE by entry
Molecular target: recombinant P. vivax NMT (PvNMT) (Plasmodium vivax, UniProt A5K1A2)
Assay: biochemical
Format: biochemical
Conditions: lipophilic efficiency, LipE = –log(Ki) – clog P; based on PvNMT data
Respond numerically, and do not add a unit to the figure.

Please review the following examples before continuing.
| Compound | LipE |
| --- | --- |
| CCOC(=O)c1cnc2ccc(OCc3ccccc3)cc2c1[S+]([O-])CC (stereo not shown) [Compound 9] | 2.46 |
| CCNC(=O)c1cnc2ccc(OCc3ccccc3)cc2c1SCC [Compound 13] | 2.46 |
| CCOC(=O)c1cnc2ccc(OCc3ccccc3)cc2c1SC [Compound 8] | 0.69 |

Reported LipE for CCSc1c(CO)cnc2ccc(OCc3ccccc3)cc12 [Compound 11] was 1.57

* * *

Recorded pKi by entry
Biological target: recombinant H. sapiens NMT isoform 1 (HsNMT1) (Homo sapiens)
Sequence (P30419 1-496): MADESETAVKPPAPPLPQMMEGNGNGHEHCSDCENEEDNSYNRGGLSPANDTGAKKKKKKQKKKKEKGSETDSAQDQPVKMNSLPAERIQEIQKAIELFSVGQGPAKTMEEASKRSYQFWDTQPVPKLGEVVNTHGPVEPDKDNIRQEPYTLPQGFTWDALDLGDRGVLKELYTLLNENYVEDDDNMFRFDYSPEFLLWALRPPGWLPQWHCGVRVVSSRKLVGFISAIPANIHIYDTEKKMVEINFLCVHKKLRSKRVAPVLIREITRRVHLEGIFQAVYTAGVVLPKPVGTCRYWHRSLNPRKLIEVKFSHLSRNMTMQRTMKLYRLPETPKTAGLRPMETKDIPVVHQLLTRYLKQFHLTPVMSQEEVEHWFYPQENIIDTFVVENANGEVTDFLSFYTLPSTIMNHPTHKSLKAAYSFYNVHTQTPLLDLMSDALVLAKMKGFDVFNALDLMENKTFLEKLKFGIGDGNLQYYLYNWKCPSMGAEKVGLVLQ
Test: fluorogenic 96-well plate enzymatic assay for HsNMT1 activity
Details: recombinant enzyme; mean ± SD from duplicates; Ki app from IC50 by Cheng-Prusoff
Formally, pKi is defined as -log10 of the concentration c, with c in mol/L.

Please review the following examples before continuing.
| Smiles Text | Tested On | Assay Value |
| --- | --- | --- |
| CCOC(=O)c1cnc2ccc(OCc3ccccc3)cc2c1SC(C)C | recombinant H. sapiens NMT isoform 1 (HsNMT1) (Homo sapiens) | 5.32 |
| CCOC(=O)c1cnc2ccc(OCc3ccccc3)cc2c1SCC | recombinant H. sapiens NMT isoform 1 (HsNMT1) (Homo sapiens) | 5.81 |
| CCNC(=O)c1cnc2ccc(OCc3ccccc3)cc2c1SCC | recombinant H. sapiens NMT isoform 1 (HsNMT1) (Homo sapiens) | 5.98 |

Here's the next entry for you.
Reported pKi for CCCSc1c(C(=O)OCC)cnc2ccc(OCc3ccccc3)cc12 was 5.47

* * *

Target: recombinant P. vivax NMT (PvNMT) (Plasmodium vivax, UniProt A5K1A2)
Assay: biochemical
Type: biochemical
Settings: recombinant enzyme; mean ± SD from duplicates; Ki app from IC50 by Cheng-Prusoff; read-out: Ki app PvNMT
Measurement Kind: Ki (nM)
Give the value, in units of nM, as a plain number.

| Smiles Text | Measure Unit | Assay Value |
| --- | --- | --- |
| CCOCc1cnc2ccc(OCc3ccccc3)cc2c1SCC | nM | 2920 |
| CCSc1c(C(=O)NCCO)cnc2ccc(OCc3ccccc3)cc12 | nM | 2840 |
| CCOC(=O)c1cnc2ccc(OCc3ccc(NCCN)nc3)cc2c1SCC | nM | 280 |
| CCOC(=O)c1cnc2ccc(OCc3ccccc3)cc2c1SCCC#N | nM | 550 |
| CCSc1c(CO)cnc2ccc(OCc3ccccc3)cc12 | nM | 4190 |

Reported Ki for CCCSc1c(C(=O)OCC)cnc2ccc(OCc3ccccc3)cc12 was 2080

Reported Ki for CCSc1c(C(=O)N2CCCC2)cnc2ccc(OCc3ccccc3)cc12 was 960

Reported Ki for CCOC(=O)c1cnc2ccc(OCc3ccccc3)cc2c1SC was 4140

Reported Ki for CCOC(=O)c1cnc2ccc(OCc3ccccc3)cc2c1S(=O)(=O)CC was 1780

* * *

Target: recombinant P. vivax NMT (PvNMT) (Plasmodium vivax, UniProt A5K1A2)
Sequence (A5K1A2 1-410): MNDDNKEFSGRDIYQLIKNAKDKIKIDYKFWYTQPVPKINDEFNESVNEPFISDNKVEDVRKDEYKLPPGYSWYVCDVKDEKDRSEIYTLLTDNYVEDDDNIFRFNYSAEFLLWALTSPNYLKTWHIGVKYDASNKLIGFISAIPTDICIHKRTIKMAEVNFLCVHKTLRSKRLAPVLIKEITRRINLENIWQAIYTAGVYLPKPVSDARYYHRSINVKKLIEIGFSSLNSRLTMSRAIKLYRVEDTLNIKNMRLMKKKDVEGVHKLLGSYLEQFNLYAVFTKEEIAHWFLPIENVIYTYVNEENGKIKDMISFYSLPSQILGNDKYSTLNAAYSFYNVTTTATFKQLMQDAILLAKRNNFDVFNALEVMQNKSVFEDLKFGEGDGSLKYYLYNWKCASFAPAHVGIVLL
Assay: biochemical
Assay type: biochemical
Details: recombinant enzyme; mean ± SD from duplicates; Ki app from IC50 by Cheng-Prusoff; read-out: Ki app PvNMT
Recorded pKi by entry
Formally, pKi is defined as -log10 of the concentration c, with c in mol/L.

Please review the following examples before continuing.
| Compound | pKi |
| --- | --- |
| CCOC(=O)c1cnc2ccc(OCc3ccccc3)cc2c1SCC | 6.36 |
| CCOC(=O)c1cnc2ccc(OCc3ccccc3)cc2c1[S+]([O-])CC (stereo not shown) | 5.76 |

With recombinant P. vivax NMT (PvNMT) (Plasmodium vivax, UniProt A5K1A2) as the test system, CCNC(=O)c1cnc2ccc(OCc3ccccc3)cc2c1SCC showed pKi of 6.47

With recombinant P. vivax NMT (PvNMT) (Plasmodium vivax, UniProt A5K1A2) as the test system, CCSc1c(C(=O)N(CC)CC)cnc2ccc(OCc3ccccc3)cc12 showed pKi of 6.39
